Tested on: Lolium perenne (LOLPE)
Test: Glasshouse assay for herbicidal activity (pre- and post-emergence), percentage phytotoxicity
Type: in vivo
Details: Lolium perenne, pre-emergence, 480 h, PRE-emergence, rate 250 g/ha, visual score 20 DAA (100%=total damage, 0%=no damage); read-out: Pre-emergence herbicidal activity (percentage phytotoxicity) LOLPE PRE
MEASURED PROPERTY: pest or weed control at 250 g/ha (%)
Reply numerically in %, unit not repeated.

For record C=C(F)CNC(=O)CC1CC(=O)C(c2c(C)cc(-c3ncc(F)cn3)cc2C)C1=O (centres unmarked) the listed pest or weed control at 250 g/ha is 100

Short answer for Cc1cc(-n2cc(Cl)cn2)cc(C)c1C1C(=O)CC(CC(=O)NCc2cccc(Br)c2)C1=O (centres unmarked) : pest or weed control at 250 g/ha was 70

* * *

System: Alopecurus myosuroides (ALOMY)
Experiment: Glasshouse assay for herbicidal activity (pre- and post-emergence), percentage phytotoxicity
Format: in vivo
Settings: Alopecurus myosuroides, pre-emergence, 480 h, Rate 250 g/ha; pre-emergence; assessed visually 20 DAA; 100%=total damage, 0%=no damage; read-out: Pre-emergence herbicidal activity (percentage phytotoxicity) ALOMY PRE
Listed next: entries and their corresponding pest or weed control at 250 g/ha.

Cc1cc(-c2ncc(F)cn2)cc(C)c1C1C(=O)CC(CC(=O)NCc2ncccc2Cl)C1=O (centres unmarked) [Compound A140] = 90%
Cc1cccc(CNC(=O)CC2CC(=O)C(c3c(C)cc(C)cc3C)C2=O)c1 (centres unmarked) [Compound A88] = 90%
C#Cc1cc(C)c(C2C(=O)CC(CC(=O)NC(C)C)C2=O)c(C)c1 (centres unmarked) [Compound A42] = 100%
Cc1cc(C)c(C2C(=O)CC(CC(=O)NCc3ncc(C)s3)C2=O)c(C)c1 (centres unmarked) [Compound A105] = 80%
Cc1cc(C)c(C2C(=O)CC(CC(=O)NCc3ncccc3Cl)C2=O)c(C)c1 (centres unmarked) [Compound A107] = 80%

Record summary for CC#Cc1cc(C)c(C2C(=O)CC(CC(=O)NC3CC3)C2=O)c(C)c1 (centres unmarked) [Compound A32] : reported pest or weed control at 250 g/ha = 70%

pest or weed control at 250 g/ha in this record for Cc1cc(C)c(C2C(=O)CC(CC(=O)NCc3nc4ccccc4s3)C2=O)c(C)c1 (centres unmarked) [Compound A100] : 90%

* * *

System: Lolium perenne (LOLPE)
Assay: Glasshouse assay for herbicidal activity (pre- and post-emergence), percentage phytotoxicity
Format: in vivo
Conditions: Lolium perenne, post-emergence, 360 h, 250 g/ha; post-emergence; 15 DAA; visual assessment (100%=total damage, 0%=no damage); read-out: Post-emergence herbicidal activity (percentage phytotoxicity) LOLPE POST
Field: label. Allowed values: label 1 (pest or weed control at 250 g/ha < 90%) or label 0 (pest or weed control at 250 g/ha >= 90%).

Solved entries:
Cc1cc(Br)cc(C)c1C1C(=O)CC(CC(=O)NCc2cccc(F)c2)C1=O (stereo not drawn) = label 0
Cc1cc(-n2cc(Cl)c(C)n2)cc(C)c1C1C(=O)CC(CC(=O)NC(C)(C)C)C1=O (stereo not drawn) = label 1
Cc1cc(-c2nc(C#N)cs2)cc(C)c1C1C(=O)CC(CC(=O)NC(C)(C)C)C1=O (stereo not drawn) = label 1

Challenge: Quick check: does Cc1cc(-c2ncc(F)cc2F)cc(C)c1C1C(=O)CC(CC(=O)N2CCOCC2)C1=O (stereo not drawn) have pest or weed control at 250 g/ha under 90%?
Response given: label 0

Challenge: I wonder whether COc1ccc(CNC(=O)CC2CC(=O)C(c3c(C)cc(-c4ncc(F)cc4F)cc3C)C2=O)cc1 (stereo not drawn) has pest or weed control at 250 g/ha below 90%. Can you tell?
Response given: label 0

Challenge: Lab log: compare recorded pest or weed control at 250 g/ha with 90%; is it strictly lower for C/C=C/c1cc(C)c(C2C(=O)CC(CC(N)=O)C2=O)c(CC)c1 (stereo not drawn) ?
Response given: label 0

Challenge: Dear reviewer, please state whether Cc1cc(-c2ncc(F)cc2F)cc(C)c1C1C(=O)C[C@H](CC(=O)NC(C)(C)C)C1=O (stereo partly drawn) has pest or weed control at 250 g/ha strictly beneath 90%.
Response given: label 0

Challenge: Check if pest or weed control at 250 g/ha falls below 90% for C#CC(C)(COC)NC(=O)CC1CC(=O)C(c2c(C)cc(C)cc2C)C1=O (stereo not drawn) .
Response given: label 1
